# Test system: NCI-H23 lung
# Protocol summary: NCI tumour cell line growth inhibition, 48 h
Quantity kind: TGI

>>> result("O=C(Nc1ccccc1)c1cc(S(=O)(=O)Nc2nc3ccccc3o2)c(SCc2ccccc2)cc1Cl")
"44.9 µM"
>>> result("O=c1[nH]c(=O)n(C2OC(CO)C(O)C2O)cc1Oc1ccccc1 (stereo unspecified)")
"> 100 µM"
>>> result("NC(N)=N/N=C/c1ccc(-c2ccc(-c3cc(Cl)cc(Cl)c3)s2)cc1")
"3.88 µM"
>>> result("COC(=O)[C@H](CC(C)C)Nc1c(O)c2c(c(O)c1Cl)C(=O)C=CC2=O")
"> 10 µM"
>>> result("Cn1c(/C=C/[N+](=O)[O-])cc2ccccc21")
"17.1 µM"
>>> result("O=C(O)CC(Sc1ccccc1)c1ccccc1 (stereo unspecified)")
"> 100 µM"
>>> result("FC(F)(Sc1ncc[nH]1)c1nc2ccccc2o1")
"> 100 µM"
>>> result("CN1CCN(Cc2ccc(NC(=O)c3cccc(C#Cc4cnc(N)c5ncccc45)c3F)cc2C(F)(F)F)CC1")
"16.4 µM"
>>> result("CC(=O)[CH-]C(=O)c1ccccc1.CC(=O)[CH-]C(=O)c1ccccc1.C[C@]12CCC(=O)C=C1CC[C@@H]1C2CC[C@@]2(C)C1CC[C@@H]2[O-].C[C@]12CCC(=O)C=C1CC[C@@H]1C2CC[C@@]2(C)C1CC[C@@H]2[O-].Cl.[Ti+4] (stereo partly specified)")
"32.1 µM"
>>> result("NNC(=O)N/N=C1\\C(=O)N(c2ccc(Cl)c(Cl)c2)C(=O)C(=O)C1c1nc2ccccc2s1 (stereo unspecified)")
"> 100 µM"
>>> result("CC1C(OC2O[C@@H]3O[C@@]4(C)CC[C@H]5[C@H](C)CC[C@@H](C2C)[C@@]35O4)O[C@@H]2O[C@@]3(C)CC[C@H]4[C@H](C)CC[C@@H]1[C@@]24O3 (stereo partly specified)")
"> 50 µM"
